Reference source: patent US9737075B2

System: Fusarium graminearum
experiment: microbe, parasite or virus in culture
Assay type: cell-based
condition_details: Fusarium graminearum, 72 h, read-out: Independent MIC
recorded_metric: MIC (µg/mL)
Answers are plain numbers, in µg/mL.

compound_structure: Cc1cc(C2CC2)nc(Nc2ccccc2)n1
unit_name: µg/mL
MIC: 200
--
compound_structure: S=C(S)NCCNC(=S)S
unit_name: µg/mL
MIC: 1.56
--
compound_structure: Cc1cc(C)nc(Nc2ccccc2)n1
unit_name: µg/mL
MIC: 200
--
compound_structure: COC(=O)N(OC)c1ccccc1COc1ccn(-c2ccc(Cl)cc2)n1
unit_name: µg/mL
MIC: 200
--
compound_structure: Cc1ccc(-c2c(Cl)nc(C#N)n2S(=O)(=O)N(C)C)cc1
unit_name: µg/mL
MIC: 100
--
compound_structure: COC(=O)Nc1nc2ccccc2[nH]1
unit_name: µg/mL
MIC: 1.56
--
compound_structure: N#Cc1c[nH]cc1-c1cccc2c1OC(F)(F)O2
unit_name: µg/mL
MIC: 50

Read the next record carefully.
Entry OB1OCc2cc(Cl)ccc21 , MIC reported as 1
